tested on: Escherichia coli; test: Activity of Escherichia coli DH5alpha beta-lactamase TEM-12 by microacidimetric method
measured endpoint: kcat (s⁻¹)
Answer in s⁻¹, number only, no unit symbol.

Please review the entries below; each comes with its answer.
CC(=O)OCC1=C(C(=O)O)N2C(=O)[C@@H](NC(=O)Cc3cccs3)[C@H]2SC1 | 46
CC1(C)S[C@@H]2[C@H](NC(=O)Cc3ccccc3)C(=O)N2[C@H]1C(=O)O | 80
C[C@H]1[C@H](NC(=O)/C(=N\OC(C)(C)C(=O)O)c2csc(N)n2)C(=O)N1S(=O)(=O)O | 2

Please look at the following compound next.
Exercise: Lookup: kcat / Escherichia coli / CC1(C)S[C@@H]2[C@H](NC(=O)[C@H](C(=O)O)c3ccsc3)C(=O)N2[C@H]1C(=O)O
Solution: 19
